# measurement notes: Selectivity index, ratio of IC50 for cytotoxicity against human HepG2 cells to MIC for antibacterial activity against Streptococcus pneumoniae DSM-20566
# Format: toxicity, cell-based
property measured: selectivity ratio
API doc: respond with a numeric literal and nothing else, no unit.

Tell me measured selectivity ratio for CCCCNc1nc(SCCCC)nc2ccc(-c3cccc(O)c3)cc12 please.
3

----------
# measurement notes: Cytotoxicity against human HepG2 cells assessed as inhibition of cell growth
# Format: toxicity, cell-based
property measured: IC50

CCCCNc1nc(SCCCC)nc2ccc(-c3cccc(O)c3)cc12 :: 15.3 µg/mL

Recall and state the measured IC50 for CCCCSc1nc(SCCCC)c2cc(NS(=O)(=O)CC)ccc2n1 .
> 37 µg/mL

Determine its reported IC50: CCCCNc1nc(SCCCC)nc2sccc12
> 37 µg/mL

Retrieve IC50 measured for CCCCSc1nc(SCCCC)c2cc(N)ccc2n1 and print it.
> 37 µg/mL

Query IC50 for CCCCNc1nc(SCCCC)nc2ccc(-c3cccc(C(=O)O)c3)cc12
> 37 µg/mL

----------
MIC by entry:
# System: Enterococcus faecalis
# measurement notes: Antibacterial activity against Enterococcus faecalis DSM-20478 assessed as bacterial growth inhibition
# Assay type: functional

Answered cases to consult:
CCCCNc1nc(SCCCC)nc2n[nH]cc12 :: > 128 µg/mL
CCCCNc1nc(SCCCC)nc2cc(-c3ccccc3)ccc12 :: > 128 µg/mL
CCCCNc1nc(SCCCC)nc2ccccc12 :: 4 µg/mL
CCCCNc1nc(SCCCC)nc2ccc(NC(=O)NCC)cc12 :: > 128 µg/mL
CCCCNc1nc(SCCCC)nc2ccc(-c3cccc(C#N)c3)cc12 :: > 128 µg/mL

# context switch: different compound, same MIC
In one line, give reported MIC of the entry CCCCNc1nc(SCCCC)nc2ccc(-c3ccccc3)cc12 .
> 128 µg/mL

----------
# Test system: Staphylococcus aureus
# measurement notes: Antibacterial activity against methicillin-resistant Staphylococcus aureus N315 assessed as bacterial growth inhibition
# Format: functional
property measured: MIC

CCCCNc1nc(SCCCC)nc2nn(CCCC)cc12 :: > 128 µg/mL

Indicate the recorded MIC value for this compound: CCCCNc1nc(SCCCC)nc2sccc12
32 µg/mL

Return reported MIC. Input compound: CCCCNc1nc(SCCCC)nc2c1cnn2CCCC
> 128 µg/mL

Kindly indicate its recorded MIC. Item: CCCCNc1nc(SCCCC)nc2ccccc12
8 µg/mL

# return recorded MIC for input CCCCNc1nc(SCCCC)nc2ccc(-c3cccc(OC)c3)cc12
> 128 µg/mL

Please give the documented MIC of CCCCSc1nc(SCCCC)c2cc(N)ccc2n1
4 µg/mL

// Input: CCCCNc1nc(SCCCC)nc2ccc(-c3cccc(C(=O)O)c3)cc12 . Output its MIC only.
8 µg/mL

Indicate its recorded MIC; the compound in question is CCCCNc1nc(SCCCC)nc2ccc(-c3ccncc3)cc12
> 128 µg/mL

Please give the documented MIC of CCCCNc1nc(SCCCC)nc2ccc(-c3ccc(C(=O)O)cc3)cc12
> 128 µg/mL

Please report MIC for the following compound: CCCCNc1nc(SCCCC)nc2ccc(-c3cn[nH]c3)cc12
> 128 µg/mL

Supply measured MIC of CCCCNc1nc(SCCCC)nc2cc(-c3ccccc3)ccc12 in your reply.
> 128 µg/mL

Name the recorded MIC of the item CCCCNc1nc(SCCCC)nc2ccc(-c3ccccc3)cc12 in your answer.
> 128 µg/mL

Name the recorded MIC of the item CCCCNc1nc(SCCCC)nc2cc(-c3cccnc3)ccc12 in your answer.
> 128 µg/mL

Find the measured MIC of CCCCNc1nc(SC)nc2n[nH]cc12 and report it.
64 µg/mL
